So I've got a bunch of molecules here, and I need their MIC values.
System: E. coli ATCC 25922
Test: MIC against E. coli ATCC 25922
Assay type: cell-based
Conditions: Escherichia coli, ATCC25922

E. coli ATCC 25922 / MIC / CSC1O[C@H]([C@H](NC(=O)[C@H]2NC[C@@H]3C[C@H]4OC(C)(C)O[C@H]4CO[C@H]32)[C@H](C)Cl)C(O)[C@@H](O)[C@H]1O (stereo partly drawn) : value?
> 64 µg/mL

Please give the result for CSC1O[C@H]([C@H](NC(=O)[C@H]2NC[C@@H]3CC=CCO[C@@H]32)[C@H](C)Cl)C(O)[C@@H](O)[C@H]1O (stereo partly drawn) too.
> 64 µg/mL

Input CSC1O[C@H]([C@H](NC(=O)[C@H]2NC[C@@H]3CN(C(=N)N)CCO[C@H]32)[C@H](C)Cl)C(O)[C@@H](O)[C@H]1O (stereo partly drawn)
> 64 µg/mL
